- Test system: Jurkat
- assay name: Cytotoxicity against human Jurkat cells after 48 hrs by MTT assay
- Type: functional, cell-based

{"compound": "CCCCOP(=O)(OCCCC)C(Nc1ccccc1C)c1ccc2c(c1)OCO2 (stereo not drawn)", "IC50": "> 500 µM"}
{"compound": "CCCCOP(=O)(OCCCC)C(Nc1cccc(F)c1)c1ccc2c(c1)OCO2 (stereo not drawn)", "IC50": "> 500 µM"}
{"compound": "CCOP(=O)(OCC)C(Nc1ccccc1O)c1ccc2c(c1)OCO2 (stereo not drawn)", "IC50": "> 500 µM"}
